System: Streptococcus mutans
Protocol: Antimicrobial activity against Streptococcus mutans KCTC 3065 after 20 hrs by plate dilution method
Assay type: functional
Assay Conditions: KCTC 3065, 20 h
# maps each entry to its MIC
Could you give me the number in µg/mL? Just the number is fine.

Please review the following examples before continuing.
Oc1ccc(/C=C/c2cc(O)cc3c2[C@H](c2cc(O)cc(O)c2)[C@@H](c2ccc(O)cc2)O3)cc1
25
Oc1ccc(C2[C@H]3c4cc(O)cc(O)c4[C@@H](c4ccc(O)cc4)[C@@H]2c2cc(O)cc(O)c23)cc1 (stereo not given in full)
100
Oc1cc(O)cc(/C=C/c2ccc(O)c(O)c2)c1
50
Oc1ccc([C@H]2c3c(O)cc(O)cc3[C@H]3c4c(cc(O)c5c4[C@H]2[C@@H](c2ccc(O)cc2)[C@@H]5c2cc(O)cc(O)c2)O[C@@H]3c2ccc(O)cc2)cc1
50

Kindly consider the entry below.
[ask] In one line, give reported MIC of the entry Oc1ccc(/C=C/c2cc(O)cc(O)c2)cc1 .
[reply] 50
